- Target Entity: ATP-binding cassette transporter A1 (ABCA1) (UniProt P41233 1-2261, limits assumed)
- Sequence (P41233 whole entry): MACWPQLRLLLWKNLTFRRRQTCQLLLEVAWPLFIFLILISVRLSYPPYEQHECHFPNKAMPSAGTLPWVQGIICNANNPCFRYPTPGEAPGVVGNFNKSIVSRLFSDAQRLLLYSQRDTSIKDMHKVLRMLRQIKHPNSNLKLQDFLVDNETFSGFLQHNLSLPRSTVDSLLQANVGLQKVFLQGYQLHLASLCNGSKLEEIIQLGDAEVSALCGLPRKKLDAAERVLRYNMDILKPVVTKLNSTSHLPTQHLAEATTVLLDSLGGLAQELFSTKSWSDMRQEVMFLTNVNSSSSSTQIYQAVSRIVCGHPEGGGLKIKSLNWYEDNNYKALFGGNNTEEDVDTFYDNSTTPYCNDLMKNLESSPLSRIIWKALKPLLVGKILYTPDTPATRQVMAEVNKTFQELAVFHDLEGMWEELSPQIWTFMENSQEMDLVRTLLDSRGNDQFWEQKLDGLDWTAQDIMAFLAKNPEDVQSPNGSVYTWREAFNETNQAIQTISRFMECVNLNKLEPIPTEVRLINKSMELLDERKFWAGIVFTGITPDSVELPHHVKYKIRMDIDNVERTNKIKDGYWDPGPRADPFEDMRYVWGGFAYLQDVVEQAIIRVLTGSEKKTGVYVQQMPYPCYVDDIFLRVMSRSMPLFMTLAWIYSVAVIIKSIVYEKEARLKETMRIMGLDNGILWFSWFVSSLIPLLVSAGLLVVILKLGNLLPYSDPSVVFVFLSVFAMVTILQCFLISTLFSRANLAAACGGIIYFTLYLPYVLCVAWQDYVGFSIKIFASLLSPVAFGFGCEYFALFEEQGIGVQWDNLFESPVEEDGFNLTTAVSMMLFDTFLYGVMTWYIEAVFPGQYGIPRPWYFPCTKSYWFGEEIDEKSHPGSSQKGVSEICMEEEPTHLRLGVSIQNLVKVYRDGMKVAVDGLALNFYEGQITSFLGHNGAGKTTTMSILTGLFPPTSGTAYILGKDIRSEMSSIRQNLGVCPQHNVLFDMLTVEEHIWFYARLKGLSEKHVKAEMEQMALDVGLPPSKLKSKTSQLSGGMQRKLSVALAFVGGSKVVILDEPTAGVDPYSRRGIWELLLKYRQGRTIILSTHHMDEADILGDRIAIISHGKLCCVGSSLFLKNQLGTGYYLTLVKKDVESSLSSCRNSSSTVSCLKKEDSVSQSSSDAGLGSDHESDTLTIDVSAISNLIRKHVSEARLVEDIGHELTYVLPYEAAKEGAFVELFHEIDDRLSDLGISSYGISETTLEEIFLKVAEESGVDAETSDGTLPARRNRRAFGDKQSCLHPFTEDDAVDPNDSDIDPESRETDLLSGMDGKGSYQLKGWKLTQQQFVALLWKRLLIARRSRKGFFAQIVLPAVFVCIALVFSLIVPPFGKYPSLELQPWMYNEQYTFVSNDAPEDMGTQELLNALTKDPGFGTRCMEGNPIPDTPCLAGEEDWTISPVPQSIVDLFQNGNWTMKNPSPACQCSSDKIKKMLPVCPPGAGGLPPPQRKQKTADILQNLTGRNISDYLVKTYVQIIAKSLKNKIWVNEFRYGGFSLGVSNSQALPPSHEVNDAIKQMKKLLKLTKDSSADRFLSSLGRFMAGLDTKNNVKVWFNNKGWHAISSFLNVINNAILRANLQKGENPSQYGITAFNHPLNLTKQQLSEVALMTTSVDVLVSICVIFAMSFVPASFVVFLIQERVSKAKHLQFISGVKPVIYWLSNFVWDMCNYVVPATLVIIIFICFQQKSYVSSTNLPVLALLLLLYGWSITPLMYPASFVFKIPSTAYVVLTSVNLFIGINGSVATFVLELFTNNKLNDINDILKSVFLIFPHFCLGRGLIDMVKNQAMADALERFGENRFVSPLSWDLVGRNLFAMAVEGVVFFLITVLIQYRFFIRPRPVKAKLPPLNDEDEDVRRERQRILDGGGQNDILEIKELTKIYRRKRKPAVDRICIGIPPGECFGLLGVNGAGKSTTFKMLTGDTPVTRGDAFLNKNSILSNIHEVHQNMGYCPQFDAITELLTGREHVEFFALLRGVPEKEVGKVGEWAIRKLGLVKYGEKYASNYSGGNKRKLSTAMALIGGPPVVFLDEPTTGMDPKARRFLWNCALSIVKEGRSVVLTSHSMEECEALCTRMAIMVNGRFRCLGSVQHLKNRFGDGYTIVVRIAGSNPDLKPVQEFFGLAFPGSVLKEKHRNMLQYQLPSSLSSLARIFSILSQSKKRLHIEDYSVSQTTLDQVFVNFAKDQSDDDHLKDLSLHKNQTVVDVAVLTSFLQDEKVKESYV
- Assay Notes: cell-based or functional assay
Record form. Attribute: % cholesterol efflux/4 hours at 30 µg/ml. Fill in for each entry.
Numbers only, in %.

The cases that follow already have their % cholesterol efflux/4 hours at 30 µg/ml on record.
>  <Binder>
ELRERLEAWFELFREFLERF [N1154-1]

>  <Output Unit>
%

>  <% cholesterol efflux/4 hours at 30 µg/ml>
3.67

$$$$
>  <Binder>
DLRDKLDAWFDLFRDFLDRF [N1154-3]

>  <Output Unit>
%

>  <% cholesterol efflux/4 hours at 30 µg/ml>
2.21

$$$$
>  <Binder>
DLRDRLDAWFDLFRDFLDRF [N1154-5]

>  <Output Unit>
%

>  <% cholesterol efflux/4 hours at 30 µg/ml>
3.53

$$$$
>  <Binder>
ELRDKLEAWFDLFREFLERF [N1154-2]

>  <Output Unit>
%

>  <% cholesterol efflux/4 hours at 30 µg/ml>
1.66

$$$$

Challenge: Give the reported value of % cholesterol efflux/4 hours at 30 µg/ml for this record: ELRDRLEAWFDLFREFLERF [N1154-4]
Response given: 3.65
